Test system: Pseudomonas aeruginosa PA01
assayNotes: Serum MIC, broth micro-dilution
Type: cell-based
reportedConditions: Pseudomonas aeruginosa, PA01, 22 h, read-out: P. aeruginosa 01 Serum MIC
experimentalEndpoint: MIC (µM)

smilesString	numericValue
Cc1nc(-c2ccc(OC(C)C)cc2)nc(C)c1C(=O)N[C@@H](CNS(N)(=O)=O)C(=O)N(C)[C@@H]1C(=O)N[C@@H](C)C(=O)N[C@H](C(=O)O)Cc2ccc(OC[C@H](O)CN)c(c2)-c2cc1cc(OC[C@H](O)CN)c2O	24
C[C@@H]1NC(=O)[C@@H](N(C)C(=O)[C@H](CNS(N)(=O)=O)NC(=O)c2ncc(-c3ccc(C(C)(C)C)cc3)nc2N)c2cc(OC[C@H](O)CN)c(O)c(c2)-c2cc(ccc2OC[C@H](O)CN)C[C@@H](C(=O)O)NC1=O	64
Cc1nc(-c2ccc(OC(C)C)cc2)ncc1C(=O)N[C@@H](CCN)C(=O)N(C)[C@@H]1C(=O)N[C@@H](C)C(=O)N[C@H](C(=O)O)Cc2ccc(OC[C@H](O)CN)c(c2)-c2cc1cc(OC[C@H](O)CN)c2O	64
C[C@@H]1NC(=O)[C@@H](N(C)C(=O)[C@H](CNS(N)(=O)=O)NC(=O)c2cnn(-c3ccc(C(C)(C)C)cc3)c(=O)c2)c2cc(OC[C@H](O)CN)c(O)c(c2)-c2cc(ccc2OC[C@H](O)CN)C[C@@H](C(=O)O)NC1=O	16

====

System: Klebsiella pneumoniae ATCC 700603
assayNotes: Serum MIC, broth micro-dilution
Type: cell-based
reportedConditions: Klebsiella pneumoniae, ATCC700603; 50% v/v mouse serum in Mueller Hinton II cation adjusted Broth, 35° C., 22 hours; Table 4; read-out: K pneumoniae 700603 Serum MIC
The entries below come with measured MIC values attached.
experimentalEndpoint: MIC (µM)

smilesString	numericValue
Cc1nc(-c2ccc(C(C)(C)C)cc2)nc(N)c1C(=O)N[C@@H](CNS(N)(=O)=O)C(=O)N(C)[C@@H]1C(=O)N[C@@H](C)C(=O)N[C@H](C(=O)O)Cc2ccc(OC[C@H](O)CN)c(c2)-c2cc1cc(OC[C@@H](O)CN)c2O	0.75
Cc1nc(-c2ccc(C(F)(F)C(C)C)cc2)nc(N)c1C(=O)N[C@@H](CNS(N)(=O)=O)C(=O)N(C)[C@@H]1C(=O)N[C@@H](C)C(=O)N[C@H](C(=O)O)Cc2ccc(OC[C@H](O)CN)c(c2)-c2cc1cc(OC[C@H](O)CN)c2O	0.5
Cc1nc(-c2ccc(C(C)(C)C)cc2)nc(C)c1C(=O)N[C@@H](CN)C(=O)N(C)[C@@H]1C(=O)N[C@@H](C)C(=O)N[C@H](C(=O)O)Cc2ccc(OC[C@H](O)CN)c(c2)-c2cc1cc(OC[C@H](O)CN)c2O	0.75
Cc1nc(-c2ccc(C(C)(C)C)cc2)cc(CN)c1C(=O)N[C@@H](CNS(N)(=O)=O)C(=O)N(C)[C@@H]1C(=O)N[C@@H](C)C(=O)N[C@H](C(=O)O)Cc2ccc(OC[C@H](O)CN)c(c2)-c2cc1cc(OC[C@H](O)CN)c2O	0.5

====

System: Klebsiella pneumoniae ATCC 700603
assayNotes: Serum MIC, broth micro-dilution
Format: cell-based
reportedConditions: Klebsiella pneumoniae, ATCC700603; 50% v/v mouse serum in Mueller Hinton II cation adjusted Broth, 35° C., 22 hours; Table 4; read-out: K pneumoniae 700603 Serum MIC
The following compounds are listed with their measured MIC values.
experimentalEndpoint: MIC (µM)

smilesString	numericValue
Cc1nc(-c2ccc(C(C)(C)C)cc2C#N)nc(N)c1C(=O)N[C@@H](CNS(N)(=O)=O)C(=O)N(C)[C@@H]1C(=O)N[C@@H](C)C(=O)N[C@H](C(=O)O)Cc2ccc(OC[C@H](O)CN)c(c2)-c2cc1cc(OC[C@H](O)CN)c2O	2
Cc1nc(-c2ccc(C3(C)CC3)cc2)nc(N)c1C(=O)N[C@@H](CNS(N)(=O)=O)C(=O)N(C)[C@@H]1C(=O)N[C@@H](C)C(=O)N[C@H](C(=O)O)Cc2ccc(OC[C@H](O)CN)c(c2)-c2cc1cc(OC[C@H](O)CN)c2O	0.75
C[C@@H]1NC(=O)[C@@H](N(C)C(=O)[C@H](CNS(N)(=O)=O)NC(=O)c2c(N)cc(-c3ccc(C(C)(C)C)cc3)nc2Cl)c2cc(OC[C@H](O)CN)c(O)c(c2)-c2cc(ccc2OC[C@H](O)CN)C[C@@H](C(=O)O)NC1=O	0.5
C[C@@H]1NC(=O)[C@@H](N(C)C(=O)[C@H](CNS(N)(=O)=O)NC(=O)c2cnn(-c3ccc(OCCC(C)(C)C)cc3)c(=O)c2)c2cc(OC[C@H](O)CN)c(O)c(c2)-c2cc(ccc2OC[C@H](O)CN)C[C@@H](C(=O)O)NC1=O	0.75

Hey, just so you know, these numbers are from patent US11208387B2.
